- Test system: biotinyl-Phe-oxazolone
- method.description: self-aminoacylation, catalytic enhancement (BFO) (fold over background); higher = more active; k-Seq, kA / k0A0; sequences stand for … in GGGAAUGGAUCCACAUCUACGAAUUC…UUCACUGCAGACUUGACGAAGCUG
This sample holds only a part of the variants without activity.
measured.quantity: self-aminoacylation
Keep it simple and answer with nothing but the number.

Recorded self-aminoacylation, per entry:
{"seq": "AUUACCCUGGUCAUAGAGUCA [Fam2.1 aminoacylation ribozyme variant]", "self-aminoacylation": 0.531}
{"seq": "CAACACUUCAAGCAAUCGGAC [Fam1B.1 aminoacylation ribozyme variant]", "self-aminoacylation": 2.37}
{"seq": "CGACACUUCAAGGAAUCGGUC [Fam1B.1 aminoacylation ribozyme variant]", "self-aminoacylation": 3.19}
{"seq": "CUACUUCAAGCAAUCGGUCUG [Fam1A.1 aminoacylation ribozyme variant]", "self-aminoacylation": 13.6}
{"seq": "ACACAGUUCAAGCAAUCGGUC [Fam1B.1 aminoacylation ribozyme variant]", "self-aminoacylation": 3.76}
{"seq": "CAACUUCAAACCAUCGGUCUG [Fam1A.1 aminoacylation ribozyme variant]", "self-aminoacylation": 1.41}

*Q* State its self-aminoacylation on biotinyl-Phe-oxazolone: CUAAUUCAAACAAUCGAUCUG [Fam1A.1 aminoacylation ribozyme variant]
*A* 0.72
